system: THP-1 macrophages infected with Mycobacterium tuberculosis H37Rv; assay: intracellular M.tb growth inhibition relative to DMSO (0) and 4 uM bedaquiline (100); higher = stronger inhibition of intracellular bacterial growth; details: 10 µM; 4 days
A collection of compounds and their measured intracellular M.tb growth inhibition

structure string: COc1cc2c(N3CCN(C(=O)Nc4ccc(OC(C)C)cc4)CC3)ncnc2cc1OCCCN1CCCCC1
intracellular M.tb growth inhibition [%]: 53
--
structure string: COc1cc2/c(=N/c3ccc(Br)cc3F)nc[nH]c2cc1OCC1CCN(C)CC1
intracellular M.tb growth inhibition [%]: 64.1
--
structure string: CCCOc1ccc(/C=C2/SC(=O)NC2=O)cc1
intracellular M.tb growth inhibition [%]: 24.9
--
structure string: CN1CCN(CCOc2cc(OC3CCOCC3)c3c(Nc4c(Cl)ccc5c4OCO5)ncnc3c2)CC1
intracellular M.tb growth inhibition [%]: 44.4
--
structure string: COc1cc2c(Oc3ccc4[nH]c(C)cc4c3F)ncnc2cc1OCCCN1CCCC1
intracellular M.tb growth inhibition [%]: 6.57
--
structure string: COc1cc2nccc(Oc3ccc(NC(=O)C4(C(=O)Nc5ccc(F)cc5)CC4)cc3)c2cc1OC
intracellular M.tb growth inhibition [%]: 94.8
--
structure string: COc1cc2c(cc1OC)-c1[nH]nc(Nc3cccc(F)c3)c1C2
intracellular M.tb growth inhibition [%]: 62.2
--
structure string: OCCn1cc(-c2ccc3c(c2)CC/C3=N\O)c(-c2ccncc2)n1
intracellular M.tb growth inhibition [%]: -91.1
--
structure string: Cc1cc(N2CCOCC2)cc2[nH]c(-c3c(NC[C@@H](O)c4cccc(Cl)c4)cc[nH]c3=O)nc12
intracellular M.tb growth inhibition [%]: -36.6
